System: Escherichia coli TOP10;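 note: peptides expressed intracellularly from a pBAD plasmid library in pooled LB shake-flask culture, induced with 0.3% L-arabinose, DNA abundance read by NGS, three biological replicates, DESeq2 with apeglm shrinkage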
measurement notes: shrunken log2 fold change of peptide-encoding DNA abundance (4.5 h post-induction vs induction); higher = less antimicrobial activity (less host growth inhibition)
measurement parameters: time post-induction: 4.5 h; library: site-saturation at positions 5, 18, 19, 20
Would you kindly list shrunken log2 fold change for each of these sequences?
Field format: numeric only.

## Input Query for Escherichia coli TOP10: what shrunken log2 fold change does the record show for RRIRLRPPRLPRPRPRPQKVPRP ?
## Output 0.0989

## Input Okay, and RRIRSRPPRLPRPRPRPKSTPRP ?
## Output -0.556

## Input Okay, and RRIRWRPPRLPRPRPRPAHTPRP ?
## Output -0.172

## Input Okay, and RRIRNRPPRLPRPRPRPQWRPRP ?
## Output 0.179

## Input Okay, and RRIRFRPPRLPRPRPRPYIIPRP ?
## Output -0.395

## Input Okay, and RRIRPRPPRLPRPRPRPGMKPRP ?
## Output -0.257

Where do the numbers come from? From the supplement of paper PMC9112550.
